Parameter: glycan array binding signal (z-score). Scope: all listed entries.
# target or system: Man(a1-2)Man(a1-2)Man(a1-6)[Man(a1-3)]Man
# measurement description: glycan array binding signal (z-score within array); higher = stronger binding
# test parameters: glycan notation: IUPAC condensed, linker removed
The sample as a whole holds a higher share of the strongest signals than the screen did.
endpoint: glycan array binding signal (z-score)

| binder | data value |
| --- | --- |
| Gz-CVNH (Gibberella zeae) (protein) MGSSHHHHHHSSGLVPRGSHMGNFHESSNNIWLEDGHILHAECGNGEGDYVESTLDLDYYIGNDDGSFSWGGENFSGSASNITLDIEGDDNIPVLRAELNPMDGDPVEANVNLSERIGNDCGTLIFLA | 7.75 |
| Pwp4 (Candida glabrata) (protein) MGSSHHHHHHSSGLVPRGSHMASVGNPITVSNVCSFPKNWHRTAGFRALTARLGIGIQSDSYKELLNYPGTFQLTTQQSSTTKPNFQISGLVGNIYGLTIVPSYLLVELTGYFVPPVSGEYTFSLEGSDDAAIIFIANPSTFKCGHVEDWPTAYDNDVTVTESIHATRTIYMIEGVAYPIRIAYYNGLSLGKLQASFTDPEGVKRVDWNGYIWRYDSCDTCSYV | -0.597 |
| ConA (Canavalia ensiformis), P02866 (protein) MAISKKSSLFLPIFTFITMFLMVVNKVSSSTHETNALHFMFNQFSKDQKDLILQGDATTGTDGNLELTRVSSNGSPQGSSVGRALFYAPVHIWESSAVVASFEATFTFLIKSPDSHPADGIAFFISNIDSSIPSGSTGRLLGLFPDANVIRNSTTIDFNAAYNADTIVAVELDTYPNTDIGDPSYPHIGIDIKSVRSKKTAKWNMQNGKVGTAHIIYNSVDKRLSAVVSYPNADSATVSYDVDLDNVLPEWVRVGLSASTGLYKETNTILSWSFTSKLKSNEIPDIATVV | 4.9 |
| 3FTT (Staphylococcus aureus), Q5HCZ5 (protein) MTEKEKMLAEKWYDANFDQYLINERARAKDICFELNHTRPSATNKRKELIDQLFQTTTDNVSISIPFDTDYGWNVKLGKNVYVNTNCYFMDGGQITIGDNVFIGPNCGFYTATHPLNFHHRNEGFEKAGPIHIGSNTWFGGHVAVLPGVTIGEGSVIGAGSVVTKDIPPHSLAVGNPCKVVRKIDNDLPSETLNDETIK | -0.073 |
| PA-IL (Pseudomonas aeruginosa) (protein) AWKGEVLANNEAGQVTSIIYNPGDVITIVAAGWASYGPTQKWGPQGDREHPDQGLICHDAFCGALVMKIGNSGTIPVNTGLFRWVAPNNVQGAITLIYNDVPGTYGNNSGSFSVNIGKDQS | -0.365 |
| Epa21 (Candida glabrata) (protein) MGSSHHHHHHSSGLVPRGSHMASTPNIESHPQGCSPVDTSGIKPGLKMDLYRFPITPPGTGCWSWDWLTVTPDFPRSGYWKWPKIAEVDGVVGPLHLDSGHPTCDPLTSVLPHGFNYLQSITTTNFTMVLHGYFVPKQSGKYTFEFKADDALLLNLGAGNAFSCCDYNNSQYNQGEYLAYAIWSKNNQTATLYLEKGIYYPIRVFYHNRCCGAYMDVVYYFNDSPIPNRDFSGLLFSIPDSDSCDANI | -0.531 |
| FaeGac (Escherichia coli) (protein) WMTGDFNGSVDIGGSITADDYRQKWEWKVGTGLNGFGNVLNDLTNGGTKLTITVTGNKPILLGRTKEAFATPVTGGVDGIPHIAFTDYEGASVVLRNPDGETNKKGLAYFVLPMKNAEGTKVGSVKVNASYAGVLGRGGVTSADGELLSLFADGLSSIFYGGLPRGSELSAGSAAAERTKLFGSLSRNDILGQIQRVNANITSLVDVAGSYRENMEYTDGTVVSAAYALGIANGQTIEATFNQAVTTSTQWSAPLNVAITYY | 2.13 |
| SLP (Clostridium difficile), Q183M8 (protein) MATTGTQGYTVVKNDWKKAVKQLQDGLKDNSIGKITVSFNDGVVGEVAPKSANKKADRDAAAEKLYNLVNTQLDKLGDGDYVDFSVDYNLENKIITNQADAEAIVTKLNSLNEKTLIDIATKDTFGMVSKTQDSEGKNVAATKALKVKDVATFGLKSGGSEDTGYVVEMKAGAVEDKYGKVGDSTAGIAINLPSTGLEYAGKGTTIDFNKTLKVDVTGGSTPSAVAVSGFVTKDDTDLAKSGTINVRVINAKEESIDIDASSYTSAENLAKRYVFDPDEISEAYKAIVALQNDGIESNLVQLVNGKYQVIFYPEGKRLETKSLEHHHHHH | -0.17 |
| PEB3 Cj0289c (Campylobacter jejuni), Q9PIK7 (protein) MDVNLYGPGGPHTALKDIANKYSEKTGVKVNVNFGPQATWFEKAKKDADILFGASDQSALAIASDFGKDFNVSKIKPLYFREAIILTQKGNPLKIKGLKDLANKKVRIVVPEGAGKSNTSGTGVWEDMIGRTQDIKTIQNFRNNIVAFVPNSGSARKLFAQDQADAWITWIDWSKSNPDIGTAVAIEKDLVVYRTFNVIAKEGASKETQDFIAYLSSKEAKEIFKKYGWRE | -0.192 |
| Aap arpt (Staphylococcus epidermidis) (protein) NNEAPQMSSTLQAEEGSNAEAPQSEPTKAEEGGNAEAAQSEPTKAEEGGNAEAPQSEPTKAEEGGNAEAAQSEPTKTEEGSNVKAAQSEPTKAEEGSNAEAPQSEPTKTEEGSNAKAAQSEPTKAEEGGNAEAAQSEPTKTEEGSNAEAPQSEPTKAEEGGYAEAPQSEPTKTEEGGNAEAPNVPTIKA | -0.012 |
| Epf (Streptococcus pyogenes) (protein) GDHGPEFNGVMVVKAAEAEELPDDLMNFKGTWEVSADGSSGRFFSKGATDSYVFHLIPAKDVKKPGWREHNEVKDSYIKIDKQSIAARYKTSTTAPYSVAFKVNTKSLIKDHDYKITFEQGQIASGITVDYRIGSAFNKTTDDSFKISDESKYASNVKIEGEEQGFKQREQGDKTISFRTLKEGPMSLVLLSKVEKKPQGDLDVEFKNLKIIDVTNPSQLDKGVAYVGNKNVQLTLKSDDGRTNFEGDEISLFNSRGELLQTVTVTKDQQNPISITLSEDQAKSLKNKEKLKVSIKQKQSKKTSKDFFFEVGIDPKVEAKQKEKLLELDKVKKQIEDSINGDAWLPEKPVDLQGDHGLSAWSHPQFEK | 1.01 |
